molecular target: MRGPRX4 (Homo sapiens); experiment: MRGPRX4 activation, Fluo-8 Ca2+ FLIPR assay in HEK293T cells stably expressing MRGPRX4; assay type: cell-based; design: key: fluorescence change dF/F0; details: E3-9, Conc. (Log[M]) −6.4
Sequence (Q96LA9 whole entry): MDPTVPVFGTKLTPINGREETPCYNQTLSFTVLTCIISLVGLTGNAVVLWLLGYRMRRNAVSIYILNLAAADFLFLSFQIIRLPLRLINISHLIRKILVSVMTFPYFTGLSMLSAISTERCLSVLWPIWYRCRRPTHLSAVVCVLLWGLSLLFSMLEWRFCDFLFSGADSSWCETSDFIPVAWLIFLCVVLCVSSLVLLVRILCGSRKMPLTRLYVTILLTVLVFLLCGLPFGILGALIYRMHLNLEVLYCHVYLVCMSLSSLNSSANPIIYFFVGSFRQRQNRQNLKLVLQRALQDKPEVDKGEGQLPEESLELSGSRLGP
Assignment: determine reported MRGPRX4 activation, Average for the given compounds.
// response body must contain only the number

Req: // returns reported MRGPRX4 activation, Average for input CC[C@H]1[C@@H](O)[C@@H]2[C@H](CC[C@]3(C)[C@@H]([C@H](C)CCNC(=O)NS(=O)(=O)c4cc(F)ccc4F)CC[C@@H]23)[C@@]2(C)CC[C@H](F)C[C@@H]12 [9-2]
Resp: 0.018

Req: # iterate: CC[C@H]1[C@@H](O)[C@@H]2[C@H](CC[C@]3(C)[C@@H]([C@H](C)CCNC(=O)NS(=O)(=O)c4cccs4)CC[C@@H]23)[C@@]2(C)CC[C@H](F)C[C@@H]12 [9-4]
Resp: 0.018

Req: # iterate: CC[C@H]1[C@@H](O)[C@@H]2[C@H](CC[C@]3(C)[C@@H]([C@H](C)CCNC(=O)NS(=O)(=O)c4ccc(C(C)(C)CF)cc4)CC[C@@H]23)[C@@]2(C)CC[C@H](F)C[C@@H]12 [9-1]
Resp: 0.019

Req: # iterate: [2H]C1CC[C@@]2(C)[C@@H](C1)[C@@H](CC)[C@@H](O)[C@@H]1[C@@H]2CC[C@]2(C)[C@@H]([C@H](C)CCC(=O)O)CC[C@@H]12 (stereo partly shown) [13-1]
Resp: 0.015

Req: # iterate: CC[C@H]1[C@@H](O)[C@@H]2[C@H](CC[C@]3(C)[C@@H]([C@H](C)CCC(=O)O)CC[C@@H]23)[C@@]2(C)CCC(F)(F)C[C@@H]12 [compound 55]
Resp: 0.019

Req: # iterate: CC[C@H]1[C@@H](O)[C@@H]2[C@H](CC[C@]3(C)[C@@H]([C@H](C)CCNC(=O)C(=O)NS(=O)(=O)c4ccc(C(C)(C)CF)cc4)CC[C@@H]23)[C@@]2(C)CCCC[C@@H]12 [8-3]
Resp: 0.013

Req: # iterate: CC[C@H]1[C@@H](O)[C@@H]2[C@H](CC[C@]3(C)[C@@H]([C@H](C)CCNC(=O)NS(=O)(=O)c4ccc(C(C)(C)CF)cc4)CC[C@@H]23)[C@@]2(C)CCC(F)(F)C[C@@H]12 [10-1]
Resp: 0.016

Req: # iterate: CC[C@H]1[C@@H](O)[C@@H]2[C@H](CC[C@]3(C)[C@@H]([C@H](C)CCNC(=O)NS(=O)(=O)c4ccc(N5CCCCC5)nc4)CC[C@@H]23)[C@@]2(C)CCCC[C@@H]12 [5-30]
Resp: 0.023

Req: # iterate: CC[C@H]1[C@@H](O)[C@H]2[C@@H]3CC[C@](C)([C@H](C)CCNC(=O)NS(=O)(=O)C[C@]45CCC(CC4=O)C5(C)C)[C@H]3CC[C@@H]2[C@@]2(C)CC[C@H](F)C[C@@H]12 [9-5]
Resp: 0.019

Req: # iterate: CC[C@H]1[C@@H](O)[C@@H]2[C@H](CC[C@]3(C)[C@@H]([C@H](C)CCNC(=O)NS(=O)(=O)c4cccs4)CC[C@@H]23)[C@@]2(C)CCCC[C@@H]12 [5-25]
Resp: 0.011
